System: 926638-142-R-J1-PDC complex spheroid viability
EXPERIMENTAL_DETAILS: Anticancer human tumor 926638-142-R-J1-PDC patient-derived endometrial carcinoma cell line growth inhibition [POLQ]
EXPERIMENTAL_CONDITIONS: second compound 1 µM; first compound 0.316 µM; stronger effect = lower value
Criterion: viability, T/C strictly under 60%. Met: Condition met. Not met: Condition not met.

# example entries with known answers
CCc1cc2c(N3CCc4c(cc(Cn5ccnc5)cc4-c4cn(C)nc4C(F)(F)F)C3=O)ccnc2c(OC)n1 + Cc1cccc(N(C)C(=O)C2C(O)CCN2c2nc(C)cc(C(F)(F)F)c2C#N)c1: Condition met
COc1cccc(OCCCN)c1-c1cc(Nc2cnc(C#N)cn2)n[nH]1 + COC1C(OC(N)=O)C(O)C(Oc2ccc3c(O)c(NC(=O)c4ccc(O)c(CC=C(C)C)c4)c(=O)oc3c2C)OC1(C)C: Condition met
CC1COCCN1c1cc(-c2ccnn2C)c2ccnc(-c3ccn[nH]3)c2n1 (stereo unspecified) + Cc1cccc(N(C)C(=O)C2C(O)CCN2c2nc(C)cc(C(F)(F)F)c2C#N)c1: Condition met
COc1cc2cc(C(=O)CCC(=O)O)sc2cc1OC + Cc1cccc(N(C)C(=O)C2C(O)CCN2c2nc(C)cc(C(F)(F)F)c2C#N)c1: Condition not met
COc1cc(C2c3cc4c(cc3C(OC3OC5COC(C)OC5C(O)C3O)C3COC(=O)C23)OCO4)cc(OC)c1O (stereo unspecified) + Nc1ccc(C#CCN(C(=O)Cc2ncc(C(F)(F)F)cc2C(F)(F)F)c2ccc(F)cc2)nn1: Condition not met

Read the next record carefully.
Quick check: does CCc1cc2c(N3CCc4c(cc(Cn5ccnc5)cc4-c4cn(C)nc4C(F)(F)F)C3=O)cc(C)nc2c(OC)n1 + COC1C(OC(N)=O)C(O)C(Oc2ccc3c(O)c(NC(=O)c4ccc(O)c(CC=C(C)C)c4)c(=O)oc3c2C)OC1(C)C have viability, T/C under 60%?
Condition met

----------
// viability, T/C lookup, one value per entry
Test system: 926638-142-R-J1-PDC complex spheroid viability
EXPERIMENTAL_DETAILS: Anticancer human tumor 926638-142-R-J1-PDC cell line growth inhibition [POLQ];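 further: spheroids exposed to drugs for one week before readout; percent viability relative to DMSO vehicle control wells set as 100%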
EXPERIMENTAL_CONDITIONS: second compound 1 µM; first compound 0.001 µM; stronger effect = lower value
Your answer is read as %, so omit the unit and give the number.

Below are worked cases with known answers.
CC[C@@]1(O)C(=O)OCc2c1cc1n(c2=O)Cc2cc3c(CN(C)C)c(O)ccc3nc2-1 + Nc1ccc(C#CCN(C(=O)Cc2ncc(C(F)(F)F)cc2C(F)(F)F)c2ccc(F)cc2)nn1: 101
CC[C@@]1(O)C(=O)OCc2c1cc1n(c2=O)Cc2cc3c(CN(C)C)c(O)ccc3nc2-1 + COC1C(OC(N)=O)C(O)C(Oc2ccc3c(O)c(NC(=O)c4ccc(O)c(CC=C(C)C)c4)c(=O)oc3c2C)OC1(C)C: 70.5
Cn1ncnc1[C@H]1c2n[nH]c(=O)c3cc(F)cc(c23)N[C@@H]1c1ccc(F)cc1 + Cc1cccc(N(C)C(=O)C2C(O)CCN2c2nc(C)cc(C(F)(F)F)c2C#N)c1: 101
Cn1ncnc1[C@H]1c2n[nH]c(=O)c3cc(F)cc(c23)N[C@@H]1c1ccc(F)cc1 + Nc1ccc(C#CCN(C(=O)Cc2ncc(C(F)(F)F)cc2C(F)(F)F)c2ccc(F)cc2)nn1: 96.7
CC[C@@]1(O)C(=O)OCc2c1cc1n(c2=O)Cc2cc3c(CN(C)C)c(O)ccc3nc2-1 + Cc1cccc(N(C)C(=O)C2C(O)CCN2c2nc(C)cc(C(F)(F)F)c2C#N)c1: 74

# evaluate next
I am curious: what viability, T/C value has been reported for Cn1ncnc1[C@H]1c2n[nH]c(=O)c3cc(F)cc(c23)N[C@@H]1c1ccc(F)cc1 + COC1C(OC(N)=O)C(O)C(Oc2ccc3c(O)c(NC(=O)c4ccc(O)c(CC=C(C)C)c4)c(=O)oc3c2C)OC1(C)C ?
94.1

----------
System: 926638-142-R-J1-PDC complex spheroid viability
EXPERIMENTAL_DETAILS: Anticancer human tumor 926638-142-R-J1-PDC cell line growth inhibition [POLQ];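 further: spheroids exposed to drugs for one week before readout; percent viability relative to DMSO vehicle control wells set as 100%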
EXPERIMENTAL_CONDITIONS: second compound 3.16 µM; first compound 0.001 µM; stronger effect = lower value
Criterion: viability, T/C strictly under 90%. Met: Criterion met. Not met: Criterion not met.

Quick check: does CC[C@@]1(O)C(=O)OCc2c1cc1n(c2=O)Cc2cc3c(CN(C)C)c(O)ccc3nc2-1 + Cc1cccc(N(C)C(=O)C2C(O)CCN2c2nc(C)cc(C(F)(F)F)c2C#N)c1 have viability, T/C under 90%?
Criterion not met

Quick one: Cn1ncnc1[C@H]1c2n[nH]c(=O)c3cc(F)cc(c23)N[C@@H]1c1ccc(F)cc1 + Nc1ccc(C#CCN(C(=O)Cc2ncc(C(F)(F)F)cc2C(F)(F)F)c2ccc(F)cc2)nn1
Criterion not met

Quick one: CC[C@@]1(O)C(=O)OCc2c1cc1n(c2=O)Cc2cc3c(CN(C)C)c(O)ccc3nc2-1 + COC1C(OC(N)=O)C(O)C(Oc2ccc3c(O)c(NC(=O)c4ccc(O)c(CC=C(C)C)c4)c(=O)oc3c2C)OC1(C)C
Criterion not met

Quick one: Cn1ncnc1[C@H]1c2n[nH]c(=O)c3cc(F)cc(c23)N[C@@H]1c1ccc(F)cc1 + Cc1cccc(N(C)C(=O)C2C(O)CCN2c2nc(C)cc(C(F)(F)F)c2C#N)c1
Criterion not met

Quick one: Cn1ncnc1[C@H]1c2n[nH]c(=O)c3cc(F)cc(c23)N[C@@H]1c1ccc(F)cc1 + COC1C(OC(N)=O)C(O)C(Oc2ccc3c(O)c(NC(=O)c4ccc(O)c(CC=C(C)C)c4)c(=O)oc3c2C)OC1(C)C
Criterion met

----------
Tested on: 926638-142-R-J1-PDC complex spheroid viability
EXPERIMENTAL_DETAILS: Anticancer human tumor 926638-142-R-J1-PDC cell line growth inhibition [POLQ];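 further: spheroids exposed to drugs for one week before readout; percent viability relative to DMSO vehicle control wells set as 100%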
EXPERIMENTAL_CONDITIONS: second compound 10 µM; first compound 0.1 µM; stronger effect = lower value
Range-based classes on measured viability, T/C: lower level: < 70%; middle level: ≥ 70% and < 80%; upper level: ≥ 80%

# example entries with known answers
Nc1ccn(C2OC(CO)C(O)C2(F)F)c(=O)n1 (stereo not given) + Nc1ccc(C#CCN(C(=O)Cc2ncc(C(F)(F)F)cc2C(F)(F)F)c2ccc(F)cc2)nn1: middle level
C#Cc1c(F)ccc2cc(O)cc(-c3ncc4c(N5CC6CCC(C5)N6)nc(OCC56CCCN5CC(F)C6)nc4c3F)c12 (stereo not given) + COC1C(OC(N)=O)C(O)C(Oc2ccc3c(O)c(NC(=O)c4ccc(O)c(CC=C(C)C)c4)c(=O)oc3c2C)OC1(C)C: middle level
Cn1ncnc1[C@H]1c2n[nH]c(=O)c3cc(F)cc(c23)N[C@@H]1c1ccc(F)cc1 + Cc1cccc(N(C)C(=O)C2C(O)CCN2c2nc(C)cc(C(F)(F)F)c2C#N)c1: middle level
COc1cc(C2c3cc4c(cc3C(OC3OC5COC(C)OC5C(O)C3O)C3COC(=O)C23)OCO4)cc(OC)c1O (stereo not given) + COC1C(OC(N)=O)C(O)C(Oc2ccc3c(O)c(NC(=O)c4ccc(O)c(CC=C(C)C)c4)c(=O)oc3c2C)OC1(C)C: middle level
CCc1cc2c(N3CCc4c(cc(Cn5ccnc5)cc4-c4cn(C)nc4C(F)(F)F)C3=O)ccnc2c(OC)n1 + Nc1ccc(C#CCN(C(=O)Cc2ncc(C(F)(F)F)cc2C(F)(F)F)c2ccc(F)cc2)nn1: lower level

# bin lookup: classify Nc1ccn(C2OC(CO)C(O)C2(F)F)c(=O)n1 (stereo not given) + COC1C(OC(N)=O)C(O)C(Oc2ccc3c(O)c(NC(=O)c4ccc(O)c(CC=C(C)C)c4)c(=O)oc3c2C)OC1(C)C by its viability, T/C
middle level

Quick one: CCCS(=O)(=O)Nc1ccc(F)c(C(=O)c2c[nH]c3ncc(-c4ccc(Cl)cc4)cc23)c1F + COC1C(OC(N)=O)C(O)C(Oc2ccc3c(O)c(NC(=O)c4ccc(O)c(CC=C(C)C)c4)c(=O)oc3c2C)OC1(C)C
upper level

Quick one: CC(C)n1c(=O)n(C)c2cnc3cc(F)c(-c4ccc(OCCCN5CCCCC5)nc4)cc3c21 + Cc1cccc(N(C)C(=O)C2C(O)CCN2c2nc(C)cc(C(F)(F)F)c2C#N)c1
upper level

----------
Tested on: 926638-142-R-J1-PDC complex spheroid viability
EXPERIMENTAL_DETAILS: Anticancer human tumor 926638-142-R-J1-PDC cell line growth inhibition [POLQ];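 further: spheroids exposed to drugs for one week before readout; percent viability relative to DMSO vehicle control wells set as 100%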
EXPERIMENTAL_CONDITIONS: second compound 0.316 µM; first compound 0.0316 µM; stronger effect = lower value
MEASURED_PROPERTY: viability, T/C (%)
Your answer is read as %, so omit the unit and give the number.

Below are worked cases with known answers.
C#Cc1c(F)ccc2cc(O)cc(-c3ncc4c(N5CC6CCC(C5)N6)nc(OCC56CCCN5CC(F)C6)nc4c3F)c12 (stereo unspecified) + Cc1cccc(N(C)C(=O)C2C(O)CCN2c2nc(C)cc(C(F)(F)F)c2C#N)c1: 86.2
CC1COCCN1c1cc(C2(O)CC3CCC(C2)O3)c2cnn(-c3ccn[nH]3)c2n1 (stereo unspecified) + Nc1ccc(C#CCN(C(=O)Cc2ncc(C(F)(F)F)cc2C(F)(F)F)c2ccc(F)cc2)nn1: 102

// map Nc1ccn(C2OC(CO)C(O)C2(F)F)c(=O)n1 (stereo unspecified) + Cc1cccc(N(C)C(=O)C2C(O)CCN2c2nc(C)cc(C(F)(F)F)c2C#N)c1 to recorded viability, T/C (system: 926638-142-R-J1-PDC complex spheroid viability)
97.1

Quick one: C=CC(=O)N1CCN(c2nc(=O)n(-c3c(C)ccnc3C(C)C)c3nc(-c4c(O)cccc4F)c(F)cc23)C(C)C1 (stereo unspecified) + Nc1ccc(C#CCN(C(=O)Cc2ncc(C(F)(F)F)cc2C(F)(F)F)c2ccc(F)cc2)nn1
108

Quick one: CC1COCCN1c1cc(C2(O)CC3CCC(C2)O3)c2cnn(-c3ccn[nH]3)c2n1 (stereo unspecified) + Cc1cccc(N(C)C(=O)C2C(O)CCN2c2nc(C)cc(C(F)(F)F)c2C#N)c1
88.7

Quick one: CCc1c2c(nc3ccc(O)cc13)-c1cc3c(c(=O)n1C2)COC(=O)[C@]3(O)CC + Cc1cccc(N(C)C(=O)C2C(O)CCN2c2nc(C)cc(C(F)(F)F)c2C#N)c1
35.6

Quick one: CCCS(=O)(=O)Nc1ccc(F)c(C(=O)c2c[nH]c3ncc(-c4ccc(Cl)cc4)cc23)c1F + Nc1ccc(C#CCN(C(=O)Cc2ncc(C(F)(F)F)cc2C(F)(F)F)c2ccc(F)cc2)nn1
90.4

Quick one: COc1cccc2c1C(=O)c1c(O)c3c(c(O)c1C2=O)CC(O)(C(=O)CO)CC3OC1CC(N)C(O)C(C)O1 (stereo unspecified) + COC1C(OC(N)=O)C(O)C(Oc2ccc3c(O)c(NC(=O)c4ccc(O)c(CC=C(C)C)c4)c(=O)oc3c2C)OC1(C)C
81.6

Quick one: COc1ccc([C@@H](O)c2cc(-c3ncnc4cc(N5CCOCC5)ccc34)c(F)cc2Cl)nn1 + Nc1ccc(C#CCN(C(=O)Cc2ncc(C(F)(F)F)cc2C(F)(F)F)c2ccc(F)cc2)nn1
119

Quick one: O=c1[nH]cc(F)c(=O)[nH]1 + Cc1cccc(N(C)C(=O)C2C(O)CCN2c2nc(C)cc(C(F)(F)F)c2C#N)c1
88.3

Quick one: COc1ccc([C@@H](O)c2cc(-c3ncnc4cc(N5CCOCC5)ccc34)c(F)cc2Cl)nn1 + Cc1cccc(N(C)C(=O)C2C(O)CCN2c2nc(C)cc(C(F)(F)F)c2C#N)c1
77.3
